# TEST_TARGET: A3G-NTD-CTD2 (wild-type NTD fused to soluble CTD2) (Homo sapiens, UniProt Q9HC16 1-384, P200A;L234K;N236A;C243A;P247K;F310K;Q318K;C321A;Q322K;C356A)
# Sequence (Q9HC16 whole entry P200A/L234K/N236A/C243A/P247K/F310K/Q318K/C321A/Q322K/C356A, the tested form may be a part): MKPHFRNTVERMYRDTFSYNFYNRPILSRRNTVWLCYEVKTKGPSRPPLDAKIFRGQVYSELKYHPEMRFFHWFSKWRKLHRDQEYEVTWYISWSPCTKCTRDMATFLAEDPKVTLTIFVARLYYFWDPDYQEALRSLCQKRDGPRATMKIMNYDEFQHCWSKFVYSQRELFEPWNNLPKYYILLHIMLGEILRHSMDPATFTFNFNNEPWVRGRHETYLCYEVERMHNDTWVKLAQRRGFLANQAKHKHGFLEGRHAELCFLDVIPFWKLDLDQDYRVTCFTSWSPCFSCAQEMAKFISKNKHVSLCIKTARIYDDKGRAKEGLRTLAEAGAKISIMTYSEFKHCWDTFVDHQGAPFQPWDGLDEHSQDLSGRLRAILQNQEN
# TEST: MST
pKd: −log10 of the molar value.

BINDER	pKd
AATCCCAATTTTTTTT (ssDNA) [16-nt CCC (5'-TCCC-polyT)]	5.17

Origin of the recorded values: paper PMC7771068
